FYI, the data here is from patent US20250361298A1.

tested_target: T1, Human LY6G6D ectodomain fused to mouse IgG2A Fc (monovalent display, knob-in-hole) (human, biotinylated for BLI capture (site not stated))
T1 chain: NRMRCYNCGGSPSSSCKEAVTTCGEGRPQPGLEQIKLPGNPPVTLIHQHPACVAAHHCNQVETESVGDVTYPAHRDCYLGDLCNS
test_summary: BLI, chain shuffle round 1; antigen not named in the table (LY6G6D ectodomain as in Example 3)
assay_metric: log10 Kd (log10 of the value in nM)

binder	log10 Kd
CP1473 (heavy chain from CB21-498, light chain from CB21-469) (antibody, V domains shown, Chain-shuffled antibody) VH: EMQLVESGGGLVQPGGSLRLSCAASGFTFSSYAMNWVRQAPGKGLECVSGISGNGGRIYYAESVKGRFTISRDNSKSTFYLQMNSLRAEDTAVYYCAKDLDVWGKGTTVTVSS VL: DVVMTQTPLSSPVTLGQSASISCRSSQSLVHSDGNTYLNWLHQRPGQPPRLLIYKISNRFSGVPDRFSGSGAGTDFTLKISRVEAEDVGVYYCMQATQFPLTFGGGTKLEIK	-0.26
CP1474 (heavy chain from CB21-498, light chain from CB21-500) (antibody, V domains shown, Chain-shuffled antibody) VH: EMQLVESGGGLVQPGGSLRLSCAASGFTFSSYAMNWVRQAPGKGLECVSGISGNGGRIYYAESVKGRFTISRDNSKSTFYLQMNSLRAEDTAVYYCAKDLDVWGKGTTVTVSS VL: DVVMTQTPLSSPVTLGQPASISCRSSQNLVHSDGNTYLNWLQQRPGQPPRLLIYKISNRFSGVPDRFSGSGAGTDFTLKISRVEAEDVGVYYCMQATQFPLTFGGGTKLEIK	-0.16
CP1481 (heavy chain from CB21-513, light chain from CB21-500) (antibody, V domains shown, Chain-shuffled antibody) VH: EVQLVDSGGGLVEPGGSLRLSCAASGFTFSSYAMTWVRQAPGKGLEWVSGISGSGGVTDYADSVKGRFTISRDNSKNTLYMQMNSLRAEDTAVYYCAKDLGVWGKGTTVTVSS VL: DVVMTQTPLSSPVTLGQPASISCRSSQNLVHSDGNTYLNWLQQRPGQPPRLLIYKISNRFSGVPDRFSGSGAGTDFTLKISRVEAEDVGVYYCMQATQFPLTFGGGTKLEIK	1.25
CP1479 (heavy chain from CB21-513, light chain from CB21-469) (antibody, V domains shown, Chain-shuffled antibody) VH: EVQLVDSGGGLVEPGGSLRLSCAASGFTFSSYAMTWVRQAPGKGLEWVSGISGSGGVTDYADSVKGRFTISRDNSKNTLYMQMNSLRAEDTAVYYCAKDLGVWGKGTTVTVSS VL: DVVMTQTPLSSPVTLGQSASISCRSSQSLVHSDGNTYLNWLHQRPGQPPRLLIYKISNRFSGVPDRFSGSGAGTDFTLKISRVEAEDVGVYYCMQATQFPLTFGGGTKLEIK	1.22
CP1471 (heavy chain from CB21-469, light chain from CB21-500) (antibody, V domains shown, Chain-shuffled antibody) VH: EVQLVESGGGLVQPGGSLRLSCAASGFTFSSYAMNWVRQAPGKGLEWVSGISGNGGRIYYADSVKGRFTISRDNSKNTLYLQMNSLRVEDTAVYYCAKDLDVWGKGTTVTVSS VL: DVVMTQTPLSSPVTLGQPASISCRSSQNLVHSDGNTYLNWLQQRPGQPPRLLIYKISNRFSGVPDRFSGSGAGTDFTLKISRVEAEDVGVYYCMQATQFPLTFGGGTKLEIK	1.10
CP1476 (heavy chain from CB21-500, light chain from CB21-469) (antibody, V domains shown, Chain-shuffled antibody) VH: EVQLVESGGGLVQPGGSLRLSCAASGFTFSSYAMNWVRQVPGKGLEGVSGMSGSGGRIYYADSVKGRFTMSRDNSKNMVYLQMNSLRAEDTALYYCAKDLDVWGKGTTVTVSS VL: DVVMTQTPLSSPVTLGQSASISCRSSQSLVHSDGNTYLNWLHQRPGQPPRLLIYKISNRFSGVPDRFSGSGAGTDFTLKISRVEAEDVGVYYCMQATQFPLTFGGGTKLEIK	0.50
